system: UO-31 renal; test: NCI tumour cell line growth inhibition, 48 h; in the data active = GI50 below about 0.43 µM; inactive = the rest
Lab note: assign the record to one of yes = active, no = inactive

Below, 6 molecules whose answers are already recorded.
cpd_smiles=O=C1c2cc(Cl)ccc2S(=O)(=O)c2c(NCCCNCCO)nc3ccccc3c21 measured_target="UO-31 renal" class=no
cpd_smiles=CN1CCN(C(=O)OCc2nc3c(N4CCOCC4)nc(Cl)nc3n2C)CC1 measured_target="UO-31 renal" class=no
cpd_smiles=CCc1ccc(/C=C\c2cc(OC)c(OC)c(OC)c2)cc1 measured_target="UO-31 renal" class=yes
cpd_smiles=CCC[CH2][Sn]1([CH2]CCC)[O]Cc2nc(C)ccc2[O]1 measured_target="UO-31 renal" class=no
cpd_smiles=N#Cc1c(-c2ccc(F)cc2)nc(N/N=C/c2c[nH]c3ccccc23)nc1N1CCOCC1 measured_target="UO-31 renal" class=no
cpd_smiles=Cc1ccc(NC(=O)c2cccc(N(C)C)c2)cc1NC(=O)c1ccc(O)cc1 measured_target="UO-31 renal" class=no

Here's the next entry for you.
Exercise: Status in this test for Cn1c2ccccc2c2c(-c3ccccc3)[n+]3ccncc3nc21 ?
Key: no

====

test system: SF-268 CNS; test: NCI tumour cell line growth inhibition, 48 h
experimental.endpoint: TGI (µM)
Quick note: give the figure in µM, leave out the unit.

compound=CC(=O)OC/C=C(/C=C/CNC1CCCCC1)OC(C)=O measured_target="SF-268 CNS" experimental_endpoint=TGI endpoint_unit=µM val=35.5

Exercise: Item under review: O=C(/C(Br)=C/c1ccccc1)c1ccccc1 . Reported TGI?
Key: 16.7

Exercise: Item under review: CCOC(=O)C1=C(OC(OCC)C(CC)[Se]c2ccccc2)CCCC1 (stereo unspecified) . Reported TGI?
Key: 41.6

====

system: MDA-MB-435; experiment: NCI tumour cell line growth inhibition, 48 h
Mark condition met for reported TGI of 5 µM or greater; mark condition not met for anything smaller.

Exercise: Answer whether TGI of Brc1ccc2c(-c3csc(-c4c[nH]c5cc(Br)ccc45)n3)c[nH]c2c1 is greater than or equal to 5 µM.
Key: condition met

Exercise: Answer whether TGI of Nc1ccc2[nH]c(-c3cccc(Cl)c3)cc(=O)c2c1 is greater than or equal to 5 µM.
Key: condition not met

Exercise: Answer whether TGI of C=C1C(=O)O[C@H]2[C@H]1CC/C(COC(=O)c1ccc3ccccc3c1)=C\CC[C@@]1(C)O[C@@H]21 is greater than or equal to 5 µM.
Key: condition not met

Exercise: Answer whether TGI of O/N=C/C1c2ccccc2-c2ccccc21 is greater than or equal to 5 µM.
Key: condition met

Exercise: Answer whether TGI of CC(C)(C)c1cc(/C=C(\C#N)C(=O)NCCO)cc(C(C)(C)C)c1O is greater than or equal to 5 µM.
Key: condition met

Exercise: Answer whether TGI of Nc1cc(N)c2nc(-c3ccccc3)c(Nc3ccc(Cl)c(Cl)c3)nc2c1 is greater than or equal to 5 µM.
Key: condition not met

====

tested on: HOP-92 NSCLC; test: NCI tumour cell line growth inhibition, 48 h
experimental.endpoint: TGI (µM)
Quick note: give the figure in µM, leave out the unit.

# example entries with known answers
compound=Nc1nc(Cl)c2ncn(Cc3ccc(C45CC6CC(CC(C6)C4)C5)c(O)c3)c2n1 experimental_endpoint=TGI val=6.19
compound=O=C(/C(Br)=C/c1ccccc1)c1ccccc1 experimental_endpoint=TGI val=4.28
compound="CSC(C1c2ccccc2N(c2ccc(C)cc2)C2=NC(=O)N(C)C(=O)C21Cl)S(=O)(=O)c1ccc(C)cc1 (stereo unspecified)" experimental_endpoint=TGI val=27.9
compound=OCc1c[nH]c2ccccc12 experimental_endpoint=TGI val=63.5
compound=CCC(=O)Oc1c2ccsc2c(OC(=O)CC)c2ccsc12 experimental_endpoint=TGI val=3.98

Now for the compound whose TGI we want.
Exercise: Item under review: Oc1c(CN2CCC(N3CCCCC3)CC2)cc(Cc2cc(CN3CCC(N4CCCCC4)CC3)c(O)c3ncccc23)c2cccnc12 . Reported TGI?
Key: 21
